assay: Stability experiment: purity after 10 days of humidity, heat or light; assay type: physicochemical; conditions: 75% RH for 10 days
Item-by-item account of purity

The examples below pair each entry with its known result.
>>> print(df.to_string())
                                   molecule  propertylabel  obsvalue
0  C=CC(=O)Nc1cc(N2CCN(CC)C3(CC3)C2)ccc1Nc1cc(N(C)C(=O)Nc2c(Cl)c(OC)cc(OC)c2Cl)ncn1 [Crystal form D]         purity     99.54
1  C=CC(=O)Nc1cc(N2CCN(CC)C3(CC3)C2)ccc1Nc1cc(N(C)C(=O)Nc2c(Cl)c(OC)cc(OC)c2Cl)ncn1 [Crystal form C]         purity     99.71
2  C=CC(=O)Nc1cc(N2CCN(CC)C3(CC3)C2)ccc1Nc1cc(N(C)C(=O)Nc2c(Cl)c(OC)cc(OC)c2Cl)ncn1 [Crystal form A]         purity     99.85
3  C=CC(=O)Nc1cc(N2CCN(CC)C3(CC3)C2)ccc1Nc1cc(N(C)C(=O)Nc2c(Cl)c(OC)cc(OC)c2Cl)ncn1 [Amorphous form]         purity     94.93
4  C=CC(=O)Nc1cc(N2CCN(CC)C3(CC3)C2)ccc1Nc1cc(N(C)C(=O)Nc2c(Cl)c(OC)cc(OC)c2Cl)ncn1 [Crystal form E]         purity     99.56

Query: Find the measured purity of C=CC(=O)Nc1cc(N2CCN(CC)C3(CC3)C2)ccc1Nc1cc(N(C)C(=O)Nc2c(Cl)c(OC)cc(OC)c2Cl)ncn1 [Crystal form B] and report it.
Response: 99.75

----------
experiment: Hygroscopicity test; assay type: physicochemical; settings: 75% RH and 25° C. for 24 h, by weighing
propertyLabel: Hygroscopicity (%)
Provide the reading as a plain figure in %.

>>> print(df.to_string())
                                   molecule  unitlabel  obsvalue
0  C=CC(=O)Nc1cc(N2CCN(CC)C3(CC3)C2)ccc1Nc1cc(N(C)C(=O)Nc2c(Cl)c(OC)cc(OC)c2Cl)ncn1 [Crystal form A]          %      0.10
1  C=CC(=O)Nc1cc(N2CCN(CC)C3(CC3)C2)ccc1Nc1cc(N(C)C(=O)Nc2c(Cl)c(OC)cc(OC)c2Cl)ncn1 [Crystal form E]          %      0.20
2  C=CC(=O)Nc1cc(N2CCN(CC)C3(CC3)C2)ccc1Nc1cc(N(C)C(=O)Nc2c(Cl)c(OC)cc(OC)c2Cl)ncn1 [Amorphous form]          %      0.52
3  C=CC(=O)Nc1cc(N2CCN(CC)C3(CC3)C2)ccc1Nc1cc(N(C)C(=O)Nc2c(Cl)c(OC)cc(OC)c2Cl)ncn1 [Crystal form C]          %      0.15
4  C=CC(=O)Nc1cc(N2CCN(CC)C3(CC3)C2)ccc1Nc1cc(N(C)C(=O)Nc2c(Cl)c(OC)cc(OC)c2Cl)ncn1 [Crystal form D]          %      0.16

Query: Find the measured Hygroscopicity of C=CC(=O)Nc1cc(N2CCN(CC)C3(CC3)C2)ccc1Nc1cc(N(C)C(=O)Nc2c(Cl)c(OC)cc(OC)c2Cl)ncn1 [Crystal form B] and report it.
Response: 0.12

----------
assay: Granularity experiment (D50, D90); type: physicochemical; settings: granularity
Description: […]
Item-by-item account of D50
Provide the reading as a plain figure in μm.

The examples below pair each entry with its known result.
>>> df
                                   compound  unitlabel  obsvalue
0  C=CC(=O)Nc1cc(N2CCN(CC)C3(CC3)C2)ccc1Nc1cc(N(C)C(=O)Nc2c(Cl)c(OC)cc(OC)c2Cl)ncn1 [Amorphous form]         μm      2.68
1  C=CC(=O)Nc1cc(N2CCN(CC)C3(CC3)C2)ccc1Nc1cc(N(C)C(=O)Nc2c(Cl)c(OC)cc(OC)c2Cl)ncn1 [Crystal form B]         μm     21.98
2  C=CC(=O)Nc1cc(N2CCN(CC)C3(CC3)C2)ccc1Nc1cc(N(C)C(=O)Nc2c(Cl)c(OC)cc(OC)c2Cl)ncn1 [Crystal form D]         μm     20.98
3  C=CC(=O)Nc1cc(N2CCN(CC)C3(CC3)C2)ccc1Nc1cc(N(C)C(=O)Nc2c(Cl)c(OC)cc(OC)c2Cl)ncn1 [Crystal form C]         μm     21.77
4  C=CC(=O)Nc1cc(N2CCN(CC)C3(CC3)C2)ccc1Nc1cc(N(C)C(=O)Nc2c(Cl)c(OC)cc(OC)c2Cl)ncn1 [Crystal form A]         μm     22.37

Consider the record given below.
Query: Find the measured D50 of C=CC(=O)Nc1cc(N2CCN(CC)C3(CC3)C2)ccc1Nc1cc(N(C)C(=O)Nc2c(Cl)c(OC)cc(OC)c2Cl)ncn1 [Crystal form E] and report it.
Response: 20.98
